Collected IC50 values appear next to each entry.
# SUBJECT_OF_TEST: T1, human recombinant endothelin B receptor (ETBR) (human, UniProt P24530 27-442)
# T1 construct: whole, on cells; The assay used membranes prepared from CHO-ETBR cells; also called ETB receptor; endothelin receptor type B
# T1 sequence (looked up): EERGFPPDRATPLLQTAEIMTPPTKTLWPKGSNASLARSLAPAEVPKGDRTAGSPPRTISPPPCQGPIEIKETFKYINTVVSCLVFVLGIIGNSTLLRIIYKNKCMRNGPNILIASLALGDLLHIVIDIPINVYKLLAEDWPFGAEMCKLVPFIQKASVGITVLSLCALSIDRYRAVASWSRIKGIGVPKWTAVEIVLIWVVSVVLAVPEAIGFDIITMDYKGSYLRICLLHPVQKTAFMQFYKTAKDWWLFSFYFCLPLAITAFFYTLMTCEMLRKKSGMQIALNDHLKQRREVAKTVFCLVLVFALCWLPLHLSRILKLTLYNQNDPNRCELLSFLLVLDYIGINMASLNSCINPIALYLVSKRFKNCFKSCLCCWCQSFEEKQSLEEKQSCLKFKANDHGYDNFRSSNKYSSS
# ASSAY_OVERVIEW: displacement of [125I]ET-1 from CHO-ETBR membranes, filtration
Positions of bridges follow the written chain, without caps; N, C: chain ends. Non-standard residues stand in square brackets, D forms with d. No end group written: not given here. Trp(7-OH) = N[C@@H](Cc1c[nH]c2c(O)cccc12)C(=O)O; 2Nal = N[C@@H](Cc1ccc2ccccc2c1)C(=O)O

Some solved entries appear below for comparison.
• GNWHGTAPDWFFNYYNIIW (lactam N-9, also called Lasso 48) [lasso peptide having primary sequence of SEQ ID NO: 48] = > 70 nM
• GNWHGTSPDWFFNYY[Trp(7-OH)] (lactam N-9, also called Lasso 4) [lasso peptide having primary sequence of SEQ ID NO: 4] = 8 nM

# next binder below
## Input So what does the record say about IC50 for GNWHGTAPDWFFNYY[2Nal] (lactam N-9, also called Lasso 54) [lasso peptide having primary sequence of SEQ ID NO: 54] ?
## Output 6.3 nM

Source listed as patent US20230076411A1.
